// values below are reported activity change, negative = inhibition
assay: AP1 Signaling Pathway (AID 357); conditions: ME-180 (cervical carcinoma) AP-1-bla reporter, EGF-induced, beta-lactamase ratio, 5 h; at 7.69 µM (top of the series) unless noted;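 also: ME-180 reporter cells stimulated with EGF at its EC50 level; % is scaled to controls: 0 for no effect and ±100 for the full control effect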
Records with an inconclusive call do not appear. Calls of active or inactive are those of the source. Calls follow the shape of the dose curve; as a rule, active = well fitted curve in either direction with a large enough effect (not every such curve was filed as active); inconclusive = small, poorly fitted or top-dose-only effect, or another doubt; inactive = flat fitted curve, though single readings scatter.

// worked examples, activity change, negative = inhibition included
INSERT INTO assay_data (smiles, readout_kind, reported) VALUES
  ('COc1ccccc1-c1cc(NCc2cccc(C)c2)ncn1', 'activity change, negative = inhibition', '-9.64% (inactive)'),
  ('CN(C)Cc1ccccc1-c1nc(N2CCOCC2)c2ccccc2n1', 'activity change, negative = inhibition', '25.9% (inactive)');

Continue with the next compound.
Name the recorded activity change, negative = inhibition for COCCn1c(=O)c(-c2ccc(Cl)cc2)nc2cnc(Oc3cccc(Cl)c3)nc21 .
13.2% (inactive)

* * *

molecular target: Calcium and integrin-binding protein 1 (Homo sapiens) (UniProt Q99828); assay: Primary qHTS for Identification of Calcium Integrin Binding Protein 1 (CIB1) Competitor (AID 1508620); details: CIB1-GST / FITC-alphaIIb peptide fluorescence polarization; series mostly up to 114 µM;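 also: GST tagged CIB1 binding a fluorescein labelled alphaIIb integrin peptide tracer; top concentration of the series differs between compounds; % is scaled to controls: 0 for no effect and ±100 for the full control effect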
Sequence (Q99828 whole entry, looked up): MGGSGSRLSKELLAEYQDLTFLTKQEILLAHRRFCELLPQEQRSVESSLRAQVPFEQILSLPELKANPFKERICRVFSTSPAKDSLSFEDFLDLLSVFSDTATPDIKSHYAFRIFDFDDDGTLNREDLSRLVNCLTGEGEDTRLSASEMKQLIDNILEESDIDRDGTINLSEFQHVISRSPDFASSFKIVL
Results filed as inconclusive are left out. The source made the active and inactive calls. Calls follow the shape of the dose curve; as a rule, active = well fitted inhibition curve with a large enough effect; inconclusive = small, poorly fitted or top-dose-only effect; inactive = flat fitted curve, though single readings scatter.
Readout Kind: outcome

The following compounds have reported results that may help.
INSERT INTO results (compound, readout_kind, reported) VALUES
  ('O=S1(=O)N=C(OCc2ccccc2)c2ccccc21', 'outcome', 'inactive'),
  ('NCCC(=O)Nc1cccc(-c2nn3c(=O)cc(N4CCNCC4)nc3s2)c1', 'outcome', 'inactive'),
  ('NCCCCNc1ncnc2ccc(-c3ccc4c(c3)OCO4)cc12', 'outcome', 'inactive'),
  ('COc1cc(O)c(C(CC(=O)N2CCCC(CN3CCCCC3)C2)c2ccc3c(c2)OCO3)c(OC)c1 (stereo unspecified)', 'outcome', 'inactive'),
  ('O=C1NC2=C(C(=O)CCC2)C(c2ccccc2Cl)N1 (stereo unspecified)', 'outcome', 'inactive');

Given the entry CN(C)CC(=O)NC1CCCc2c1cnn2-c1ccc(F)cc1F (stereo unspecified) , report its measured outcome.
inactive

What do you get for COc1ccc(OC)c(NC(=O)C(OC(=O)CNC(=O)c2ccccc2)c2ccccc2)c1 (stereo unspecified) ?
inactive

Entry to check: O=C(Nc1ccc(-n2cncn2)c(C(F)(F)F)c1)Nc1nnc(-c2ccncc2)s1
inactive

Would you mind doing Oc1ccc(COC2CCN(Cc3ccccc3)C2)c2cccnc12 (stereo unspecified) as well?
inactive

Query CC(=O)Nc1sc2c(c1-c1cc3ccccc3s1)CCNC2 next
inactive

Follow-up item: O=C(Nc1ccc(Cl)c(C(F)(F)F)c1)Nc1cccc(-c2ccncc2)n1
inactive

* * *

molecular target: Cytochrome P450 2C19 (Homo sapiens) (UniProt P33261); assay: qHTS Assay for Inhibitors and Substrates of Cytochrome P450 2C19 (AID 899); conditions: recombinant CYP2C19, luciferin-H EGE luminescence; series mostly up to 57.1 µM; also: nearly all actives have a fitted effect of over 60% in size
Sequence (P33261 whole entry, looked up): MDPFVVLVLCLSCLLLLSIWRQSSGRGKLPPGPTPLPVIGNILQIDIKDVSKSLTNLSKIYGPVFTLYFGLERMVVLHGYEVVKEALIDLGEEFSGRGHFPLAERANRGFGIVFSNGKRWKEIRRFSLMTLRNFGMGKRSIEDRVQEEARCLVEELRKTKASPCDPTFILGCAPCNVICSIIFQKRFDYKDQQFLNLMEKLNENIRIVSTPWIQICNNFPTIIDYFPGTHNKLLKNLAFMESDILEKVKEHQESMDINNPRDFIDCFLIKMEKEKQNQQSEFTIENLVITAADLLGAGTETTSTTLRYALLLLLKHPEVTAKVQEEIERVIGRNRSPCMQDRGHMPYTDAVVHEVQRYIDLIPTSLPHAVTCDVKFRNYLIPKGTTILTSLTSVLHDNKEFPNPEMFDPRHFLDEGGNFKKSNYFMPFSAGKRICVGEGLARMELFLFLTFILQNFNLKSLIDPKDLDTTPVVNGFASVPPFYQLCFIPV
Inconclusive results are not listed. Active and inactive are the calls of the source. The call rests on the fitted dose curve; in most records, active means well fitted inhibition curve with a large enough effect; inconclusive means small, poorly fitted or top-dose-only effect; inactive means no such curve, though single readings can be large or run the other way.
Outcome field: choose from 1 = active, 0 = inactive

Consider the following illustrative entries.
INSERT INTO assay_data (smiles, assigned_class) VALUES
  ('CN(Cc1ccco1)c1ncnc2ccc(-c3cccnc3)cc12', 1),
  ('COc1ccccc1-c1cncnc1NCc1cccnc1', 1),
  ('c1csc(CNc2ncncc2-c2ccc3c(c2)OCO3)c1', 1);

Per the records of this test, what outcome belongs to COc1ccccc1-c1cc(NCc2cccc(C)c2)ncn1 ?
1

Now consider CNc1ccnc(-c2c(C)noc2C)n1 .
0

Then this molecule: O=C(c1cc(C(F)(F)F)cc(C(F)(F)F)c1)N1CCC2(CCCN(Cc3nccs3)C2)CC1
0

Same question, CC(C)NC(=O)N1CCCC2(CCN(C(=O)c3cccc(F)c3)CC2)C1 this time
0

Try the molecule c1cncc(CNc2ncnc3ccc(-c4ccoc4)cc23)c1
1

Param item: c1ccc(CNc2ccnc(-c3ccoc3)n2)cc1
1

And then Cc1cccc(CNc2ncnc3ccc(-c4ccoc4)cc23)c1 , what is it?
1

Would you mind doing COc1ccc(CNc2ccnc(-c3ccc4c(c3)OCO4)n2)c(OC)c1 as well?
1

What would you report for Clc1ccccc1-c1cncnc1NCc1cccs1 ?
1

Note, next up: Fc1ccc(Nc2ncncc2-c2ccccc2C(F)(F)F)cc1
1

Also need COCCn1c(=O)c(CCc2ccccc2)nc2cnc(OC)nc21 , thanks.
1

Try the molecule COCCNc1cc(-c2ccccc2C(F)(F)F)ncn1
1

* * *

test: qHTS Assay for Lipid Storage Modulators (AID 1519); conditions: Drosophila S3 cells, BODIPY lipid droplet/cell ratio, laser cytometry; measured here: cell count channel max response; cells loaded with oleic acid
Inconclusive results are not listed.
Readout Kind: max response (%)
Lab book: enter the figure in %, no units written.

Known max response results, listed for orientation:
INSERT INTO measurements (smiles, reported) VALUES
  ('CN(Cc1ccco1)c1ncncc1-c1cccc(C#N)c1', 14.4),
  ('CN(Cc1ccco1)c1ncnc2ccc(-c3cccnc3)cc12', -8.64),
  ('COc1cccc(Cn2c(=O)c(-c3ccc(F)cc3)nc3cnc(OC)nc32)c1', 25.9),
  ('CN1CCCC2(CCN(C(=O)c3cccn3C)CC2)C1', 11.8);

Requested read-out: max response. Entry: N#Cc1cccc(-c2nc3cnc(N4CCOCC4)nc3n(C[C@H]3CCCO3)c2=O)c1
10

Cool, now CN(C)c1ccc(-c2ccc3ncnc(-n4ccnc4)c3c2)cc1
4.81

Next up: COc1cccc(Nc2ncc3nc(-c4ccc(F)cc4)c(=O)n(C)c3n2)c1
19

Same again, this time with O=C(c1ccco1)N1CCC2(CC1)CN(c1ccccc1)C2
15.8

What do we get for CS(=O)(=O)N1CCC[C@@]2(CCN(Cc3ccccc3)C2)C1 ?
2.42

Subsequent entry: CN(C)c1ccc(-c2nc(N(C)Cc3ccco3)c3ccccc3n2)cc1
0.88

Another compound to look at: FC(F)(F)c1ccccc1-c1cc(N2CCNCC2)ncn1
13.9

* * *

assay: qHTS Assay for Lipid Storage Modulators (AID 1519); settings: Drosophila S3 cells, BODIPY lipid droplet/cell ratio, laser cytometry; measured here: lipid channel max response; cells loaded with oleic acid
Inconclusive results are not listed.
Readout Kind: max response (%)
Provide the reading as a plain figure in %.

Take a look at these entries with their results.
INSERT INTO measurements (smiles, reported) VALUES
  ('O=c1cnc2cnc(N3CCOCC3)nc2n1C1CC1', 8.8),
  ('O=C(c1cccc(F)c1)N1CCC2(CC1)CN(c1cccc(-c3ccccc3)c1)C2', -20.8),
  ('COc1ccc(NC(=O)N2CCC3(CC2)CCN(C(=O)c2csnn2)CC3)cc1', 29.5),
  ('O=c1c(-c2cc(F)cc(F)c2)nc2cnc(N3CCOCC3)nc2n1C1CC1', 11.7),
  ('Cc1nc2cnc(N(C)C)nc2n(Cc2ccc(F)cc2)c1=O', 21.5),
  ('Cc1noc(C)c1C(=O)N1CCC2(CC1)CCN(c1cccc(-c3ccccc3)c1)CC2', -15.8),
  ('Cc1noc(C)c1-c1nccc(NCc2cccnc2)n1', 21.8),
  ('CC(=O)NCCNc1nc(-c2ccccc2Cl)nc2ccccc12', 20.7);

What measured max response goes with Cc1ccccc1-c1cncnc1Nc1ccc(F)cc1 ?
2.59

Note, next up: Cn1cccc1C(=O)N1CCC2(CC1)CN(C(=O)Nc1ccccc1)C2
14.5

// next record CN1CCN(c2ncc3nc(-c4cc(F)cc(F)c4)c(=O)n(C)c3n2)CC1
19.8

And what about the compound COCC(=O)N1CCC2(CC1)CCN(C(=O)Nc1cccc(C#N)c1)CC2 ?
4.41

Subsequent entry: CN(C)C(=O)c1ccc(-c2cc(NCc3cccnc3)ncn2)cc1
22.9

Then this compound: COCCn1c(=O)c(-c2ccc(F)cc2)nc2cnc(OC)nc21
9.8

Consider next the compound CC(C)CN1CCC2(CC1)CCN(C(=O)c1csnn1)CC2 in the same way.
-1.99

What do you get for O=c1cnc2cnc(Nc3ccccc3)nc2n1Cc1cccs1 ?
12.5

# iterate: COc1cccc(-c2ccc3ncnc(N(C)Cc4ccco4)c3c2)c1
7.63

Param item: COc1ccccc1CN1CC2(CCN(C(=O)c3cnccn3)CC2)C1
20.3

And for COc1ccc(Oc2ncc3nc(-c4ccc(OC)cc4)c(=O)n(C4CC4)c3n2)cc1 ?
-0.829

And the next one, O=C(c1cnccn1)N1CCC[C@@]2(CCN(c3ccncc3)C2)C1 ?
12.1

Then this compound: COc1ccc(CNc2cc(-c3ccoc3)ncn2)c(OC)c1
38.7

Next up: COc1ncc2nc(-c3cccc(C#N)c3)c(=O)n(CCC#N)c2n1
20.3

What do we get for O=C(Nc1cccc(F)c1)N1CCC2(CC1)CCN(C(=O)c1csnn1)CC2 ?
21.6

Would you kindly repeat that for c1cncc(CNc2cc(-c3ccc4c(c3)OCO4)ncn2)c1 ?
18.9
